Task for the reader: assign each of the following compounds its reported melting point.

### Prompt Look up melting point: O=C1COc2ccc(C(=O)CBr)cc2N1
### Response 190 to 192 °C

### Prompt Also check O=C(CC(F)(F)F)c1ccc(F)cc1
### Response 29 to 31 °C

### Prompt Also check BrCCCOc1ccc2c(c1)OCO2
### Response 60 to 62 °C

### Prompt Also check Cc1cc(COc2ccc(C(=O)O)cc2Br)no1
### Response 200 to 202 °C

### Prompt Also check C#CCOc1ccc(NC)cc1
### Response 46 to 48 °C

### Prompt Also check O=C(NCc1ccccc1F)c1ccc(-n2ccnc2S)cc1
### Response 211 to 213 °C

### Prompt Also check Cc1sc(C(=O)O)cc1[N+](=O)[O-]
### Response 97 to 99 °C

### Prompt Also check Nc1ccccc1NC(=O)CC1C=CCC1 (stereo not drawn)
### Response 128 to 130 °C

### Prompt Also check CC(C)(C)OC(=O)N1CCN(c2ccc(CN)cc2F)CC1
### Response 69 to 71 °C

### Prompt Also check O=C(O)c1ccc[nH]1
### Response 204 to 208 °C

### Prompt Also check CS(=O)(=O)c1ccc(OCCBr)cc1
### Response 100 to 102 °C

### Prompt Also check COC(=O)c1ccc(NC(=O)Oc2ccccc2)cc1
### Response 185 to 187 °C

### Prompt Also check NNC(=O)c1nnc(-c2ccccc2)o1
### Response 173 to 175 °C

### Prompt Also check O=C(O)CC(Br)C(=O)c1ccc(Cl)cc1 (stereo not drawn)
### Response 113 to 117 °C

### Prompt Also check COc1ccc(C(N)=O)cc1F
### Response 169 to 171 °C

### Prompt Also check CC(=O)NCc1ccc(N)cc1
### Response 92 to 94 °C

### Prompt Also check CC(C)(C)c1ccc(C(=O)Nc2ccc(O)cc2)cc1
### Response 196 to 198 °C

### Prompt Also check Cc1cc(=O)c(C(=O)O)nn1-c1cccc(Cl)c1
### Response 223 to 225 °C

### Prompt Also check O=C(O)CS(=O)c1ccc([N+](=O)[O-])cc1 (stereo not drawn)
### Response 178 to 180 °C

### Prompt Also check O=C(O)C1Cc2cc(Cl)ccc2O1 (stereo not drawn)
### Response 114 to 118 °C

### Prompt Also check Cc1ccc(C(=O)O)cc1S(N)(=O)=O
### Response 275 to 277 °C

### Prompt Also check O=C(O)C1CCN(c2ccc(Cl)c(Cl)c2)C1=O (stereo not drawn)
### Response 165 to 167 °C

### Prompt Also check O=C(O)Cc1ccc(C(F)F)cc1
### Response 76 to 78 °C

### Prompt Also check Cc1nc(S)n(C2CC2)c1C
### Response 178 to 180 °C

### Prompt Also check N#Cc1ccc(NCC(=O)O)cc1
### Response 225 to 227 °C

### Prompt Also check O=C(Nc1sccc1C(=O)O)c1ccc2c(c1)CCC2
### Response 214 to 216 °C

### Prompt Also check Cc1[nH]ncc1CNc1ccc(O)cc1
### Response 150 to 152 °C

### Prompt Also check O=c1[nH]c2ccc(NCc3ccccc3)cc2[nH]1
### Response 242 to 244 °C

====

Task for the reader: assign each of the following compounds its reported melting point.

### Prompt Look up melting point: COc1ccc(C=CC(=O)O)cc1S(=O)(=O)N1CCOCC1
### Response 238 to 240 °C

### Prompt Also check Cc1cc(C(=O)O)c(C)n1-c1ccc(C#N)cc1
### Response 249 to 251 °C

### Prompt Also check CC1CCC(NC2CCC(O)CC2)CC1 (stereo not drawn)
### Response 143 to 145 °C

### Prompt Also check Oc1ccc(Oc2nccs2)cc1
### Response 126 to 128 °C

### Prompt Also check CN1C(=O)CCc2cc(Br)ccc21
### Response 79 to 81 °C

### Prompt Also check O=C(O)CCNS(=O)(=O)c1cccc(C(F)(F)F)c1
### Response 113 to 115 °C

### Prompt Also check Nc1cnn(Cc2ccc(Cl)cc2)c1
### Response 49 to 51 °C

### Prompt Also check O=C(O)c1cccc(S(=O)(=O)F)c1
### Response 152 to 154 °C

### Prompt Also check C#CCNC(=O)c1cccc(C#N)c1
### Response 132 to 134 °C

### Prompt Also check Cc1ccc(C(C)NC(=O)CCl)cc1C (stereo not drawn)
### Response 196 to 198 °C

### Prompt Also check COc1ccccc1NS(=O)(=O)c1ccc2oc(N)nc2c1
### Response 210 to 212 °C

### Prompt Also check N#Cc1ccc(CNc2ccc3[nH]c(=O)[nH]c3c2)cc1
### Response 276 to 278 °C

### Prompt Also check CCOC(=O)c1c(C)[nH]c(C=O)c1C
### Response 162 to 164 °C

====

Task for the reader: assign each of the following molecules its reported melting point.

### Prompt Look up melting point: CC(=O)NCc1ccc(C(=O)CCl)o1
### Response 125 to 127 °C

### Prompt Also check O=C(Nc1ccc(S(=O)(=O)Cl)cc1)C(F)(F)F
### Response 152 to 154 °C

### Prompt Also check NC(CC(=O)O)c1ccc(-c2ccccc2)cc1 (stereo not drawn)
### Response 238 to 240 °C

### Prompt Also check O=C1CCOc2c(Br)cccc21
### Response 62 to 64 °C

### Prompt Also check COC(=O)N1CCC(N)CC1
### Response 40 to 42 °C

### Prompt Also check COc1cccc(Cn2ccc3ccc(N)cc32)c1
### Response 59 to 61 °C

### Prompt Also check CCOc1ccc(-c2cc(N)on2)cc1
### Response 126 to 128 °C

### Prompt Also check Cc1c(S(=O)(=O)Cl)cnn1-c1ccc(Cl)cc1
### Response 119 to 121 °C

### Prompt Also check Cn1c(Cl)nc2ccccc2c1=O
### Response 109 to 111 °C

### Prompt Also check Cc1csc(NC2CC2)n1
### Response 64 to 66 °C

### Prompt Also check COc1cc(-c2cc(C(=O)NN)c3ccccc3n2)cc(OC)c1OC
### Response 200 to 202 °C

### Prompt Also check O=C1CCS(=O)(=O)O1
### Response 69 to 71 °C

### Prompt Also check O=C(O)c1cc2c(cc1O)OCO2
### Response 189 to 191 °C

### Prompt Also check O=C(O)C1CC1c1c(Cl)cccc1Cl (stereo not drawn)
### Response 144 to 146 °C

### Prompt Also check CCNC(=O)c1ccc(NC2CCOCC2)c(C)c1
### Response 195 to 197 °C

### Prompt Also check Cc1cc(Cl)ccc1OCc1n[nH]c(-c2ccccn2)n1
### Response 174 to 176 °C

### Prompt Also check O=C(O)Cn1cncn1
### Response 199 to 201 °C

### Prompt Also check O=C(O)C=C1CCC1
### Response 89 to 91 °C

### Prompt Also check NC(C(=O)O)c1ccc(Cl)cc1Cl (stereo not drawn)
### Response 215 to 217 °C

### Prompt Also check Cc1cccc(-n2nnnc2S)c1
### Response 156 to 158 °C

### Prompt Also check COc1ccc(CC(N)c2ccc(OC)cc2)cc1 (stereo not drawn)
### Response 175 to 177 °C

### Prompt Also check Cc1cc(C(=O)O)c(C)n1-c1ccccn1
### Response 187 to 189 °C

### Prompt Also check O=C1CN(C(=O)CCl)CCN1
### Response 124 to 126 °C

### Prompt Also check Cc1cc(C)cc(C(=O)CC#N)c1
### Response 140 to 142 °C

### Prompt Also check CCOC(=O)Cc1csc(NC(=O)Cc2ccccc2)n1
### Response 92 to 94 °C

### Prompt Also check O=C(O)CS(=O)Cc1ccc(Br)cc1 (stereo not drawn)
### Response 141 to 143 °C

### Prompt Also check Cc1cccc(COc2ccc(S(N)(=O)=O)cc2)c1
### Response 159 to 161 °C

### Prompt Also check Cc1onc2c(=O)[nH]nc(-c3ccccc3)c12
### Response 235 to 237 °C

====

assayEndpoint: melting point

### Prompt Look up melting point: O=C(O)c1n[nH]c2c1CCCC2
### Response 249 to 251 °C

### Prompt Also check CC(C)CC(C(=O)O)N1C(=O)c2ccccc2C1=O (stereo not drawn)
### Response 119 to 121 °C

### Prompt Also check O=C(O)c1nc(-c2ccccc2)n(-c2ccccc2)n1
### Response 177 to 181 °C

### Prompt Also check Cc1sc(-n2cccc2)c(C(=O)O)c1C
### Response 156 to 158 °C

### Prompt Also check Cc1cccc(OCC(=O)N2CCNCC2)c1C
### Response 86 to 88 °C

### Prompt Also check NC(Cn1cccn1)=NO
### Response 80 to 82 °C

### Prompt Also check O=C1C(=O)N(Cc2ccc(Cl)cc2)c2ccccc21
### Response 163 to 165 °C

### Prompt Also check Nc1nonc1-c1cccc(Cl)c1
### Response 133 to 135 °C

### Prompt Also check N#Cc1ccc(CCC(=O)O)cc1
### Response 137 to 139 °C

### Prompt Also check O=C(O)CCOc1ccc(Oc2ccccc2)cc1
### Response 118 to 120 °C

### Prompt Also check Nn1cncn1
### Response 64 to 66 °C

### Prompt Also check Cc1ccc(C(=O)O)cc1S(=O)(=O)Cl
### Response 140 to 147 °C

### Prompt Also check O=Cc1ccc(OCc2ccc(Cl)cc2)cc1
### Response 72 to 74 °C

### Prompt Also check CC(O)c1nc2ccccc2n1C(F)F (stereo not drawn)
### Response 96 to 98 °C

### Prompt Also check COc1ccc(S(=O)(=O)CCC(=O)O)cc1OC
### Response 139 to 141 °C

### Prompt Also check CC(=O)c1ccc(S(=O)(=O)N2CCOCC2)cc1
### Response 161 to 163 °C

### Prompt Also check O/N=C/c1c(Cl)nc(Cl)n1-c1ccccc1
### Response 179 to 181 °C

### Prompt Also check Cc1cc(C(=O)NN)c2ccccc2n1
### Response 177 to 179 °C

### Prompt Also check CSc1nn(C)c(N)c1C#N
### Response 123 to 125 °C

### Prompt Also check Cc1cc(OCC(N)=O)ccc1N
### Response 137 to 139 °C

### Prompt Also check Cc1cccc(C(N)C(=O)O)c1 (stereo not drawn)
### Response 229 to 231 °C

### Prompt Also check O=C(Nc1cccc(Cn2cccnc2=O)c1)OCC(F)(F)F
### Response 173 to 175 °C

### Prompt Also check Cc1cc(C(=O)O)c2cc(Br)ccc2n1
### Response 259 to 261 °C

### Prompt Also check Cc1cc(C)nc(SCc2ccc(C(=O)NN)cc2)n1
### Response 135 to 137 °C

### Prompt Also check O=C(O)CN1C(=O)C2C3C=CC(C3)C2C1=O (stereo not drawn)
### Response 146 to 148 °C

### Prompt Also check COc1cc(C(=O)Cc2nc3ccccc3n2C(F)F)cc(OC)c1OC
### Response 112 to 114 °C

### Prompt Also check N#Cc1cc(C(=O)O)c[nH]1
### Response 229 to 231 °C

### Prompt Also check Nc1cncnc1N1CCCC1
### Response 156 to 158 °C
